Recorded values, source the supplement of paper PMC10307832.

System: A-427
Assay: relative viability (nuclei count vs DMSO), 5 days (fraction); higher = more cells survive
Settings: first compound 2.53 µM
Would you kindly list relative viability for each of these compounds?
Answers are plain numbers.

Consider the following illustrative entries.
{"columns": ["COMPOUND", "STUDY SYSTEM", "relative viability"],
 "data": [
  ["O=c1cc(-c2cccc3c2Sc2ccccc2S3)oc(N2CCOCC2)c1 + CC(C)C[C@H](NC(=O)[C@H](Cc1ccccc1)NC(=O)c1cnccn1)B(O)O [Bortezomib] (partner 0.002 µM)", "A-427", 0.931],
  ["COc1nc(C)cnc1NS(=O)(=O)c1cccnc1-c1ccc(-c2nnco2)cc1 [Zibotentan] + Cc1nc(Nc2ncc(C(=O)Nc3c(C)cccc3Cl)s2)cc(N2CCN(CCO)CC2)n1 [Dasatinib] (partner 0.075 µM)", "A-427", 0.828]
]}

Next item in the queue.
Return reported relative viability. Input compound: COc1nc(C)cnc1NS(=O)(=O)c1cccnc1-c1ccc(-c2nnco2)cc1 [Zibotentan] + O=C(CCCCCCC(=O)Nc1ccccc1)NO [Vorinostat] (partner 1 µM)
0.928
